// data source = PubChem BioAssay AID2060625

# System: 186277-243-T-J2-PDC spheroids with HUVEC/MSC, viability
# measurementProtocol: Anticancer human tumor 186277-243-T-J2-PDC patient-derived colon adenocarcinoma cell line growth inhibition [CLK]
# experimentalParameters: second compound 0.1 µM; first compound 0.1 µM; stronger effect = lower value
Measured viability, T/C, listed per entry for reference.
Number only, in %; omit the unit.

Cn1ncnc1[C@H]1c2n[nH]c(=O)c3cc(F)cc(c23)N[C@@H]1c1ccc(F)cc1 + CNC(=O)c1ccc(Nc2nc(OC3CCCC3)c3c(-c4ccc5nc(C)oc5c4)c[nH]c3n2)c(OC)c1; 68.5
Nc1ccn(C2OC(CO)C(O)C2(F)F)c(=O)n1 (stereo not drawn) + CN1CCN(c2cc(C(=O)Nc3cc4cc(-c5cnn(C)c5)ccc4cn3)ccn2)CC1; 15.4
CC(=O)O[C@H]1C(=O)[C@@]2(C)[C@H]([C@H](OC(=O)c3ccccc3)[C@]3(O)C[C@H](OC(=O)[C@H](O)[C@@H](NC(=O)c4ccccc4)c4ccccc4)C(C)=C1C3(C)C)[C@]1(OC(C)=O)CO[C@@H]1C[C@@H]2O + CNC(=O)c1ccc(Nc2nc(OC3CCCC3)c3c(-c4ccc5nc(C)oc5c4)c[nH]c3n2)c(OC)c1; 85.1
CC(Nc1ccc2c(c1)OCCn1cc(N3C(=O)OCC3C(F)F)nc1-2)C(N)=O (stereo not drawn) + CN1CCN(c2cc(C(=O)Nc3cc4cc(-c5cnn(C)c5)ccc4cn3)ccn2)CC1; 54.4
Cn1ncnc1[C@H]1c2n[nH]c(=O)c3cc(F)cc(c23)N[C@@H]1c1ccc(F)cc1 + CN1CCN(c2cc(C(=O)Nc3cc4cc(-c5cnn(C)c5)ccc4cn3)ccn2)CC1; 58.6
C=CC(=O)N1CCN(c2nc(=O)n(-c3c(C)ccnc3C(C)C)c3nc(-c4c(O)cccc4F)c(F)cc23)C(C)C1 (stereo not drawn) + CNC(=O)c1ccc(Nc2nc(OC3CCCC3)c3c(-c4ccc5nc(C)oc5c4)c[nH]c3n2)c(OC)c1; 79.4

Prompt: Look up viability, T/C for this compound: O=C(c1cc(Cc2n[nH]c(=O)c3ccccc23)ccc1F)N1CCN(C(=O)C2CC2)CC1 + CNC(=O)c1ccc(Nc2nc(OC3CCCC3)c3c(-c4ccc5nc(C)oc5c4)c[nH]c3n2)c(OC)c1
Completion: 81.7

Prompt: Report viability, T/C for CCCS(=O)(=O)Nc1ccc(F)c(C(=O)c2c[nH]c3ncc(-c4ccc(Cl)cc4)cc23)c1F + CN1CCN(c2cc(C(=O)Nc3cc4cc(-c5cnn(C)c5)ccc4cn3)ccn2)CC1 please.
Completion: 82.3

----------
# System: 186277-243-T-J2-PDC spheroids with HUVEC/MSC, viability
# measurementProtocol: Anticancer human tumor 186277-243-T-J2-PDC cell line growth inhibition [CLK]; active = viability on the fitted dose curve at most 10% of control; inactive = the rest;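 further: compound exposure lasted seven days before readout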
# experimentalParameters: second compound 10 µM; first compound 0.1 µM
# Excerpt: A high-throughput screen of multi-cell type tumor spheroids was designed to identify active combinations of […] and targeted small molecules. Complex spheroids include a stromal component modeled by human endothelial cells (HUVEC) and fibroblasts modeled by human mesenchymal stem cells (MSCs). […] Compounds. […] If the clinical Cmax for an agent had not been determined, the highest concentration tested was 10 microM. […]
Bench note: report the call from Yes for active, No for inactive

COC1C=CCC(C)C(C)S(=O)(=O)NC(=O)c2ccc3c(c2)N(CC2CCC21)CC1(CCCc2cc(Cl)ccc21)CO3 (stereo not given) + CN1CCN(c2cc(C(=O)Nc3cc4cc(-c5cnn(C)c5)ccc4cn3)ccn2)CC1; Yes
COc1c(OCCCN2CCOCC2)ccc2c3n(c(=NC(=O)c4cnc(N)nc4)nc12)CCN3 + CN1CCN(c2cc(C(=O)Nc3cc4cc(-c5cnn(C)c5)ccc4cn3)ccn2)CC1; Yes
O=c1[nH]cc(F)c(=O)[nH]1 + CNC(=O)c1ccc(Nc2nc(OC3CCCC3)c3c(-c4ccc5nc(C)oc5c4)c[nH]c3n2)c(OC)c1; No
CC(=O)O[C@H]1C(=O)[C@@]2(C)[C@H]([C@H](OC(=O)c3ccccc3)[C@]3(O)C[C@H](OC(=O)[C@H](O)[C@@H](NC(=O)c4ccccc4)c4ccccc4)C(C)=C1C3(C)C)[C@]1(OC(C)=O)CO[C@@H]1C[C@@H]2O + CNC(=O)c1ccc(Nc2nc(OC3CCCC3)c3c(-c4ccc5nc(C)oc5c4)c[nH]c3n2)c(OC)c1; No
O=c1[nH]cc(F)c(=O)[nH]1 + CN1CCN(c2cc(C(=O)Nc3cc4cc(-c5cnn(C)c5)ccc4cn3)ccn2)CC1; Yes

Prompt: In this assay, the call recorded for COc1c(OCCCN2CCOCC2)ccc2c3n(c(=NC(=O)c4cnc(N)nc4)nc12)CCN3 + CNC(=O)c1ccc(Nc2nc(OC3CCCC3)c3c(-c4ccc5nc(C)oc5c4)c[nH]c3n2)c(OC)c1 was what?
Completion: Yes

Prompt: For CC(CO)NC(=O)c1cc(-c2ccc(Cl)cc2)nn(-c2cnn(C)c2)c1=O (stereo not given) + CNC(=O)c1ccc(Nc2nc(OC3CCCC3)c3c(-c4ccc5nc(C)oc5c4)c[nH]c3n2)c(OC)c1 , which call appears in the assay record?
Completion: No

Prompt: Which outcome did this test record for the molecule CC(=O)O[C@H]1C(=O)[C@@]2(C)[C@H]([C@H](OC(=O)c3ccccc3)[C@]3(O)C[C@H](OC(=O)[C@H](O)[C@@H](NC(=O)c4ccccc4)c4ccccc4)C(C)=C1C3(C)C)[C@]1(OC(C)=O)CO[C@@H]1C[C@@H]2O + CN1CCN(c2cc(C(=O)Nc3cc4cc(-c5cnn(C)c5)ccc4cn3)ccn2)CC1 ?
Completion: Yes

Prompt: Recorded test call requested for CCN1CCN(Cc2ccc(Nc3ncc(F)c(-c4cc(F)c5nc(C)n(C(C)C)c5c4)n3)nc2)CC1 + CNC(=O)c1ccc(Nc2nc(OC3CCCC3)c3c(-c4ccc5nc(C)oc5c4)c[nH]c3n2)c(OC)c1
Completion: No

Prompt: Hi, sorry to bother you, what did the test record for Cn1ncnc1[C@H]1c2n[nH]c(=O)c3cc(F)cc(c23)N[C@@H]1c1ccc(F)cc1 + CN1CCN(c2cc(C(=O)Nc3cc4cc(-c5cnn(C)c5)ccc4cn3)ccn2)CC1 ?
Completion: Yes

----------
Measured pIC50 of individual entries
# Test system: 186277-243-T-J2-PDC spheroids with HUVEC/MSC, viability
# measurementProtocol: Anticancer human tumor 186277-243-T-J2-PDC cell line growth inhibition [CLK];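 further: compound exposure lasted seven days before readout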
# experimentalParameters: curve of first compound; second compound 1 µM
pIC50: −log10 of the molar value.

Solved cases (6 shown):
CCCS(=O)(=O)Nc1ccc(F)c(C(=O)c2c[nH]c3ncc(-c4ccc(Cl)cc4)cc23)c1F + CNC(=O)c1ccc(Nc2nc(OC3CCCC3)c3c(-c4ccc5nc(C)oc5c4)c[nH]c3n2)c(OC)c1; > 7.50
C=C(F)C(=O)N1CCN(c2nc(OCC3CCCN3C)nc3c2CCN(c2cccc4cccc(Cl)c24)C3)CC1CC#N (stereo not given) + CNC(=O)c1ccc(Nc2nc(OC3CCCC3)c3c(-c4ccc5nc(C)oc5c4)c[nH]c3n2)c(OC)c1; > 7.50
C=CC(=O)Nc1cc(Nc2nccc(-c3cn(C)c4ccccc34)n2)c(OC)cc1N(C)CCN(C)C + CNC(=O)c1ccc(Nc2nc(OC3CCCC3)c3c(-c4ccc5nc(C)oc5c4)c[nH]c3n2)c(OC)c1; > 9.02
COc1c(OCCCN2CCOCC2)ccc2c3n(c(=NC(=O)c4cnc(N)nc4)nc12)CCN3 + CNC(=O)c1ccc(Nc2nc(OC3CCCC3)c3c(-c4ccc5nc(C)oc5c4)c[nH]c3n2)c(OC)c1; > 8.50
Nc1ccn(C2OC(CO)C(O)C2(F)F)c(=O)n1 (stereo not given) + CNC(=O)c1ccc(Nc2nc(OC3CCCC3)c3c(-c4ccc5nc(C)oc5c4)c[nH]c3n2)c(OC)c1; > 7.50
C=CC(=O)N1CCN(c2nc(=O)n(-c3c(C)ccnc3C(C)C)c3nc(-c4c(O)cccc4F)c(F)cc23)C(C)C1 (stereo not given) + CN1CCN(c2cc(C(=O)Nc3cc4cc(-c5cnn(C)c5)ccc4cn3)ccn2)CC1; > 7.50

Prompt: Report pIC50 for Cn1ncnc1[C@H]1c2n[nH]c(=O)c3cc(F)cc(c23)N[C@@H]1c1ccc(F)cc1 + CNC(=O)c1ccc(Nc2nc(OC3CCCC3)c3c(-c4ccc5nc(C)oc5c4)c[nH]c3n2)c(OC)c1 please.
Completion: > 9.50

Prompt: Give the measured pIC50 of CC(CO)NC(=O)c1cc(-c2ccc(Cl)cc2)nn(-c2cnn(C)c2)c1=O (stereo not given) + CN1CCN(c2cc(C(=O)Nc3cc4cc(-c5cnn(C)c5)ccc4cn3)ccn2)CC1 .
Completion: > 7.50

Prompt: Dear colleague, I am looking for the recorded pIC50 of the following molecule: CCN1CCN(Cc2ccc(Nc3ncc(F)c(-c4cc(F)c5nc(C)n(C(C)C)c5c4)n3)nc2)CC1 + CNC(=O)c1ccc(Nc2nc(OC3CCCC3)c3c(-c4ccc5nc(C)oc5c4)c[nH]c3n2)c(OC)c1
Completion: > 8.50

Prompt: If you can, please state the reported pIC50 value of CCc1c2c(nc3ccc(O)cc13)-c1cc3c(c(=O)n1C2)COC(=O)[C@]3(O)CC + CNC(=O)c1ccc(Nc2nc(OC3CCCC3)c3c(-c4ccc5nc(C)oc5c4)c[nH]c3n2)c(OC)c1 .
Completion: > 8.50
